Known PBM E-score of a selection of sequences
# target under test: Ylr278c (UniProt Q05854)
# Sequence (Q05854 whole entry): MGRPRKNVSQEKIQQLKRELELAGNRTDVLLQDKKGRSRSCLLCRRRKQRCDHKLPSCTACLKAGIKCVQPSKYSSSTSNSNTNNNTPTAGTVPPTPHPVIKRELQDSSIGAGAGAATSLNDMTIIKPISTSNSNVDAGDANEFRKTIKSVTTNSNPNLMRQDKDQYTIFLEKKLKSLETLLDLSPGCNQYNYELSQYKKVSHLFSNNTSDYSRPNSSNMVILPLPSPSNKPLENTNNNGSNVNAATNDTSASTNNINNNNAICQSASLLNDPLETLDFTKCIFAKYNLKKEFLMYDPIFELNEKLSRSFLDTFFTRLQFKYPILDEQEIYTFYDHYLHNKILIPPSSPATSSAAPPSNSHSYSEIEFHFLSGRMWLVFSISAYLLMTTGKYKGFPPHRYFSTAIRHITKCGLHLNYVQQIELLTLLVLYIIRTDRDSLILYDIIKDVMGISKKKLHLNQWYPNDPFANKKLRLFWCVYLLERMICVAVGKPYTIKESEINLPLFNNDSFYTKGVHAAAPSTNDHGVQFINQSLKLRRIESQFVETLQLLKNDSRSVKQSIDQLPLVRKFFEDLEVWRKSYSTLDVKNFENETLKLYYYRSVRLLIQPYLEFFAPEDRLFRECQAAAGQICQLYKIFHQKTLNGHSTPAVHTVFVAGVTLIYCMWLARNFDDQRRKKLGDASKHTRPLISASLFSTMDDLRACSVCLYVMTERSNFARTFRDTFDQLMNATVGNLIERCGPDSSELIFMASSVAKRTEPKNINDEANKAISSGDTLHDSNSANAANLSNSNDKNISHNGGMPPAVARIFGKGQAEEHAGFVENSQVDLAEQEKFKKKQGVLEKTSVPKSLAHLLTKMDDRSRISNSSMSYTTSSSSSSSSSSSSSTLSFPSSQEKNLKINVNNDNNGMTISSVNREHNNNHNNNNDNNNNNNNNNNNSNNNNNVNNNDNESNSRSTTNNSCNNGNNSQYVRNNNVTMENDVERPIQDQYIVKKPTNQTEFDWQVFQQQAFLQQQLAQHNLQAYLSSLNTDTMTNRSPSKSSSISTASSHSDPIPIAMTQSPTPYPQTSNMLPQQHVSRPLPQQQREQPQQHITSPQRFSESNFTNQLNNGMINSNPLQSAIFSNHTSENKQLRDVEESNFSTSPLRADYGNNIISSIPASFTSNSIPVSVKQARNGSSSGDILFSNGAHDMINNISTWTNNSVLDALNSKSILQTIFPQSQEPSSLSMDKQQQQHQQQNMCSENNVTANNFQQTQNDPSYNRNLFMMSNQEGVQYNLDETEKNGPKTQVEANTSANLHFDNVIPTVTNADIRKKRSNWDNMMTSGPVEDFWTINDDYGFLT
# protocol details: PBM E-score (8-mer binding enrichment) (E-score (-0.5 to 0.5)); higher = stronger / more preferred TF binding
# run conditions: protein concentration: 200 nM; construct: GST-DNA-binding domain
Whole data set: some 33,000 sequences, median “E-score (-0.5 to 0.5)” near -0.054, cut for the highest 2% near 0.39. What follows is part of a selection rich in the highest values, with near analogues and random picks from the rest.
Please give the numeric answer without any surrounding text.

Look over these answered cases.
INSERT INTO assay_data (residue_codes, reported_value) VALUES
  ('AGGCGCCG', 0.206),
  ('CCGCGCCC', 0.191),
  ('ACCTTGTC', -0.192),
  ('AGAGTCGC', -0.14),
  ('AGTTAGAC', -0.0203);

Entry under test: CGAGTCCG . Its PBM E-score was 0.391

Entry under test: CAGGACTG . Its PBM E-score was -0.287

Entry under test: ACTCAACT . Its PBM E-score was 0.0546

Entry under test: AGGAGAGC . Its PBM E-score was -0.275

Entry under test: CGTTAGAC . Its PBM E-score was -0.0149

Entry under test: CCTCCAAA . Its PBM E-score was -0.14

Entry under test: CCGCGCGA . Its PBM E-score was 0.216

* * *

# target under test: Ylr278c (UniProt Q05854)
# protocol details: PBM E-score (8-mer binding enrichment) (E-score (-0.5 to 0.5)); higher = stronger / more preferred TF binding
# run conditions: protein concentration: 200 nM; construct: GST-DNA-binding domain
The full ranking holds about 33,000 sequences; the median of “E-score (-0.5 to 0.5)” is about -0.054, and the highest 2% start at about 0.39. The list comes from a sample in which the highest values are over-represented; it also holds close analogues and randomly drawn sequences.
The label depends only on PBM E-score: yes if it is at least 0.2, no if it is smaller.

Some entries whose results are on file:
INSERT INTO measurements (residue_codes, target_under_test, cat) VALUES
  ('CCGCGCCG', 'Ylr278c (UniProt Q05854)', 'yes'),
  ('CGGAATTC', 'Ylr278c (UniProt Q05854)', 'yes'),
  ('CCGCCGCC', 'Ylr278c (UniProt Q05854)', 'yes'),
  ('CGGAATTA', 'Ylr278c (UniProt Q05854)', 'yes'),
  ('CCGTCCCG', 'Ylr278c (UniProt Q05854)', 'yes');

// next entry
INPUT: Determine whether measured PBM E-score meets or exceeds 0.2 for CCGCCGTC
OUTPUT: yes

* * *

# target under test: Ylr278c (UniProt Q05854)
# protocol details: PBM E-score (8-mer binding enrichment) (E-score (-0.5 to 0.5)); higher = stronger / more preferred TF binding
# run conditions: protein concentration: 200 nM; construct: GST-DNA-binding domain
Whole data set: some 33,000 sequences, median “E-score (-0.5 to 0.5)” near -0.054, cut for the highest 2% near 0.39. Many of the other results were omitted from the sample, so the highest values are more common in it than they were.
Known PBM E-score of a selection of sequences
Please give the numeric answer without any surrounding text.

INSERT INTO measurements (residue_codes, target_under_test, property_name, reported_value) VALUES
  ('ATTTCGGC', 'Ylr278c (UniProt Q05854)', 'PBM E-score', 0.275),
  ('GTCCAAGA', 'Ylr278c (UniProt Q05854)', 'PBM E-score', -0.185),
  ('GTTTCGAA', 'Ylr278c (UniProt Q05854)', 'PBM E-score', -0.0713),
  ('ATGCCGAC', 'Ylr278c (UniProt Q05854)', 'PBM E-score', 0.318),
  ('GGTCGGAA', 'Ylr278c (UniProt Q05854)', 'PBM E-score', 0.338),
  ('AGTCGGCG', 'Ylr278c (UniProt Q05854)', 'PBM E-score', 0.215),
  ('CAGGTTGG', 'Ylr278c (UniProt Q05854)', 'PBM E-score', -0.138),
  ('CTTTCGTA', 'Ylr278c (UniProt Q05854)', 'PBM E-score', -0.173);

Entry under test: GTGCAACA . Its PBM E-score was -0.184

Entry under test: CCTCGGCA . Its PBM E-score was 0.25

Entry under test: AATTTTCC . Its PBM E-score was 0.358

Entry under test: CCAGATGG . Its PBM E-score was -0.0985

Entry under test: CAGTATGG . Its PBM E-score was -0.195

Entry under test: CCTTCGGC . Its PBM E-score was 0.112

Entry under test: CTGATCTC . Its PBM E-score was -0.0675

Entry under test: GCTTCGGA . Its PBM E-score was 0.367

Entry under test: GTTCCGAA . Its PBM E-score was 0.373

Entry under test: AGTCGGAC . Its PBM E-score was 0.366

Entry under test: CTCGCGTC . Its PBM E-score was 0.0578

Entry under test: CCTTCGGA . Its PBM E-score was 0.424

Entry under test: CTTTCGGC . Its PBM E-score was 0.239

* * *

# target under test: Ylr278c (UniProt Q05854)
# protocol details: PBM E-score (8-mer binding enrichment) (E-score (-0.5 to 0.5)); higher = stronger / more preferred TF binding
# run conditions: protein concentration: 200 nM; construct: GST-DNA-binding domain
The full ranking holds about 33,000 sequences; the median of “E-score (-0.5 to 0.5)” is about -0.054, and the highest 2% start at about 0.39. Shown is part of a subset that was picked to be rich in the highest values.
The label depends only on PBM E-score: met if it is at least 0.1, not met if it is smaller.

Some entries whose results are on file:
INSERT INTO results (residue_codes, cat) VALUES
  ('CCGGACGA', 'met'),
  ('AGCGGAGA', 'met'),
  ('ACGGAGTG', 'met'),
  ('AGCGCTCC', 'not met'),
  ('CGCGGACA', 'met');

INPUT: Determine whether measured PBM E-score meets or exceeds 0.1 for GGCGGAAA
OUTPUT: met

INPUT: Determine whether measured PBM E-score meets or exceeds 0.1 for ACGTCTTA
OUTPUT: not met

INPUT: Determine whether measured PBM E-score meets or exceeds 0.1 for CAGGAGTA
OUTPUT: not met

INPUT: Determine whether measured PBM E-score meets or exceeds 0.1 for ACGGACGA
OUTPUT: met

INPUT: Determine whether measured PBM E-score meets or exceeds 0.1 for ATTCATAC
OUTPUT: not met

INPUT: Determine whether measured PBM E-score meets or exceeds 0.1 for GAAGCGGC
OUTPUT: met

INPUT: Determine whether measured PBM E-score meets or exceeds 0.1 for CGCGGATA
OUTPUT: met

INPUT: Determine whether measured PBM E-score meets or exceeds 0.1 for GTGCTCAA
OUTPUT: not met

INPUT: Determine whether measured PBM E-score meets or exceeds 0.1 for CGCGGAGC
OUTPUT: met

INPUT: Determine whether measured PBM E-score meets or exceeds 0.1 for GGCGGATA
OUTPUT: met

INPUT: Determine whether measured PBM E-score meets or exceeds 0.1 for CGCGGATC
OUTPUT: met

INPUT: Determine whether measured PBM E-score meets or exceeds 0.1 for AAAGCCTT
OUTPUT: not met

INPUT: Determine whether measured PBM E-score meets or exceeds 0.1 for TGGGAGAA
OUTPUT: not met

INPUT: Determine whether measured PBM E-score meets or exceeds 0.1 for AGCGGAGC
OUTPUT: met

INPUT: Determine whether measured PBM E-score meets or exceeds 0.1 for ATGACGAG
OUTPUT: not met

INPUT: Determine whether measured PBM E-score meets or exceeds 0.1 for CGCGGAGA
OUTPUT: met

INPUT: Determine whether measured PBM E-score meets or exceeds 0.1 for CCGGACGG
OUTPUT: met

INPUT: Determine whether measured PBM E-score meets or exceeds 0.1 for AAGGAGTG
OUTPUT: not met

INPUT: Determine whether measured PBM E-score meets or exceeds 0.1 for AGAAGGCC
OUTPUT: not met

INPUT: Determine whether measured PBM E-score meets or exceeds 0.1 for AGCGTGGC
OUTPUT: not met

INPUT: Determine whether measured PBM E-score meets or exceeds 0.1 for AATGGTAA
OUTPUT: not met

* * *

# target under test: Ylr278c (UniProt Q05854)
# protocol details: PBM E-score (8-mer binding enrichment) (E-score (-0.5 to 0.5)); higher = stronger / more preferred TF binding
# run conditions: protein concentration: 200 nM; construct: GST-DNA-binding domain
The full ranking holds about 33,000 sequences; the median of “E-score (-0.5 to 0.5)” is about -0.054, and the highest 2% start at about 0.39. This is one part of a sample in which the highest values are shown more often than they occur.
property name: PBM E-score
Please give the numeric answer without any surrounding text.

INSERT INTO assay_data (residue_codes, target_under_test, reported_value) VALUES
  ('TAAGGGCA', 'Ylr278c (UniProt Q05854)', -0.144);

Entry under test: AAACCCCG . Its PBM E-score was 0.449

Entry under test: CAATCCGG . Its PBM E-score was 0.393

Entry under test: CGACCACG . Its PBM E-score was 0.0345
